system: mice; assay: Cytokine induction (IL-6, IP-10) in mice after intravenous administration; format: in vivo; set-up: unit not given here; conditions: 0.5 mpk, 6 hours
endpoint: IL-6
Form: value (number only, do not type unit).

Exercise: Short answer please: IL-6, mice, entry CCCCCCCCCN(CCCO)CCCCCCCC(=O)OC(CCCCCCCC)CCCCCCCC
Solution: 116.35

Exercise: Now try CCCCCCCCCOC(=O)CCCCCCCN(CCO)CCCCCC(=O)OC(CCCCCCCC)CCCCCCCC .
Solution: 161.07

Exercise: Same thing, different molecule: CCCCCCCCCOC(=O)CCCCCCCN(CCCCCCCC(=O)OC(CCCCCCCC)CCCCCCCC)CCOC
Solution: 64.65

Exercise: Moving on to the next molecule: CCCCCCCCCOC(=O)CCCCCCCN(CCCCCCCC(=O)OC(CCCCCCCC)CCCCCCCC)CCCOC
Solution: 32.01

====

test system: mice; assay: Luc expression (bioluminescence, total flux) after intravenous administration to mice; type: in vivo; details: Luc total flux (Table 3D)
I'd appreciate it if you could supply AUC (p/s*h) values for the items below.
// note: answer is a bare numeric in p/s*h

Exercise: Need AUC (p/s*h) of CCCCCCCCCC(=O)OCCCCCCCN(CCO)CCCCCCCOC(=O)C(CCCCCCCC)CCCCCCCC [Compound 151] , thanks.
Solution: 7.010E+011

Exercise: Same for CCCCCCCCC(CCCCCCCC)OC(=O)CCCCCCCN(C)CCCCCCCCCC(=O)OCCCCCCC [Compound 149]
Solution: 1.057E+011

Exercise: Next compound up: CCCCCCCCC(CCCCCCCC)OC(=O)CCCCCCCN(CCO)CCCCCCCC(=O)OCC(CCCCCCC)OC (stereo not drawn) [Compound 148]
Solution: 4.965E+011

====

Give measured IP-10 for each item. Keep answers brief.
test system: mice; assay: Cytokine induction (IL-6, IP-10) in mice after intravenous administration; format: in vivo; parameters: unit not given here; details: 0.5 mpk, 6 hours
Output: the number by itself.

Exercise: State the recorded IP-10 for this entry: CCCCCC/C=C\COC(=O)CCCCCCCN(CCO)CCCCCCCC(=O)OC(CCCCCCCC)CCCCCCCC
Solution: 1172.93

Exercise: Now the same for CCCCCCCCCCCOC(=O)CCCCCN(CCO)CCCCCC(=O)OCCCCCCCCCCC
Solution: 1072.04

Exercise: Now the compound CCCCCCCCCOC(=O)CCCCCCCN(CCCCCCCC(=O)OC(CCCCCCCC)CCCCCCCC)CCCOC
Solution: 206.75

Exercise: For CCCCCCCCCOC(=O)CCCCCCCN(CCCCCCCC(=O)OC(CCCCCCCC)CCCCCCCC)CCN(C)C then?
Solution: 621.49

Exercise: Then what about the compound CCCCCCCCC(CCCCCCCC)OC(=O)CCCCCCCN(CCO)CCCCCC ?
Solution: 487.16

====

experiment: Particle size and polydispersity index of nanoparticle compositions (Zetasizer Nano ZS); type: physicochemical; conditions: nanoparticle composition lipid:DSPC:cholesterol:PEG-DMG 50:10:38.5:1.5 mol %, mRNA encoding Luc or hEPO (Table 1A)
endpoint: Size (nm)
Give just the numeric value; nm need not be written.

Exercise: Given CCCC/C=C\CCC(CC/C=C\CCCC)OC(=O)CCCCCCCN(CCO)CCCCCC(=O)OCCCCCCCCCCC [Compound 61] , state its recorded Size (nm).
Solution: 89.1

Exercise: Field entry: CCCCCCCCCOC(=O)CCCCCCCN(CCCCCCCC(=O)OC(CCCCCCCC)CCCCCCCC)CCCOC(=O)NC [Compound 175]
Solution: 65.4

Exercise: Moving on to CCCCCCCCCOC(=O)CCCCCCCN(CCCCCCCC(=O)OC(CCCCCCCC)CCCCCCCC)CCCNC(=S)N(C)C [Compound 111]
Solution: 79.3
